system: Trypanosoma cruzi; assay: Antiparasitic activity against Trypanosoma cruzi DM28c epimastigotes harboring TcMCA3 assessed reduction in parasite viability incubated for 72 hrs by MTT assay; type: functional, organism-based
result type: IC50

• C=CCc1cccc(/C=N/NC(=O)CN2CCN(Cc3ccccc3)CC2)c1O = 14 µM

----------
tested on: Trypanosoma cruzi; assay: Antitrypanosomal activity against bloodstream Trypanosoma cruzi Y strain trypomastigote assessed as reduction in parasite viability incubated for 24 hrs by Neubauer chamber based analysis; type: functional, organism-based
Where a SMILES comes first, the peptide text is derived from it. The star is where a group is joined. Cbz = O=C(OCc1ccccc1)*
result type: IC50 (µM)

* CC(C)[C@H](NC(=O)OCc1ccccc1)C(=O)N[C@H](C=O)Cc1ccccc1 (Cbz-Val-Phe-aldehyde) | 20.4
